molecular target: T1, human-CD40-monomer protein (human, UniProt P25942 21-193, limits assumed); assay: SPR, Ab captured on protein A, 1 uM hCD40 monomer, single concentration, apparent value
T1 construct: Soluble monomer generated in house, used as SPR analyte; also called hCD40; hCD40-monomer
T1 sequence (P25942 21-193 limits assumed): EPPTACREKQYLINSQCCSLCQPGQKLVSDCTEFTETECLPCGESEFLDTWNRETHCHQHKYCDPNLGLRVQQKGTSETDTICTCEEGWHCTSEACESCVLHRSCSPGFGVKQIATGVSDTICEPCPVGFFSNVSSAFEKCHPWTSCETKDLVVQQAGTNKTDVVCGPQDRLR
For each record, write down the corresponding pKd.
Numbers only, as −log10 of the molar value.

The following binders have reported results that may help.
ADX_Y1268.ZZ0-1 (antibody, V domains shown, Mouse anti-human-CD40 antibody) VH: QVQLQQPGAELVKPGASVRLSCKASGYAFTSYWMHWVKQRPGQGLEWIGQINPSNGRSQYNEKFKTMATLTVDKSSSTAYIQLSSLTSEDSAVYYCARWGLQPFAYWGQGTLVTVSA VL: DIVMTQSHKFMSTSVGDRVSITCKASQDVSTAVAWYQQKPGQSPKLLIYSASYRYTGVPDRFTGSGSGTDFTFTISSVQAEDLAVYYCQQHYSTPWTFGGGTKLEIK :: 8.85
ADX_Y1267.ZZ0-1 (antibody, V domains shown, Mouse anti-human-CD40 antibody) VH: QVQLQQPGAELVKPGASVRLSCEASGYSFTSYWMHWVKQRPGQGLEWIGQINPSNGRTQYNEKFKSMATLTVDKSSSTAYIQLNSLTSEDSAVYYCARWGLQPFAYWGQGTLVTVSA VL: DIVMTQSHKFMSTSVGDRVSITCKASQDVSTAVAWYQQKPGQSPKLLIYSASYRYTGVPDRFTGSGSGTDFTFTISSVQAEDLAVYYCLQHYTTPWTFGGGTKLEIK :: 8.96
ADX_Y1260.ZZ0-1 (antibody, V domains shown, Mouse anti-human-CD40 antibody) VH: QVQLQQSGAELTKPGASVKMSCKASGYSFTSYWMHWVKQRPGQGLEWIGSINPSTGYTEDNQKFKDKATLTADKSSTTAYMQLSSLTSEDSAVYYCARWGLPPFAYWGQGTLVTVSA VL: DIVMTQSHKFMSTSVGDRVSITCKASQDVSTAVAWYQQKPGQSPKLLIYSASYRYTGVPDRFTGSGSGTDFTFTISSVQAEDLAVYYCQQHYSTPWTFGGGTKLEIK :: 8.40
ADX_Y1238.ZZ0-1 (antibody, V domains shown, Mouse anti-human-CD40 antibody) VH: QVQLQQSGAELVRPGTSVKVSCKASGYAFTNYLIEWVKQRPGQGLEWIGVINPGSGGTNYNEKFKGKATLTADKSSSTAYMQLSSLTSDDSAVYFCARSQLGRRFDYWGQGTTLTVSS VL: DIVMTQSHKFMSTSVGDRVSITCKASQDVRTGVAWYQQKPGQSPKLLIYSASYRNTGVPDRFTGSRSGTDFTFTISSVQAEDLAVYYCQQHYSPPYTFGGGTKLEIK :: 8.66

Now consider a different binder.
Give the measured pKd of ADX_Y1264.ZZ0-1 (antibody, V domains shown, Mouse anti-human-CD40 antibody) VH: EVQLQQSGTVLARPGASVKMSCRASGYSFSSYWMHWVKQRPGQGLEWIGSINPGNSDAFYNQQFKGKAKLTAVTSASTAYMELSSLTNEDSAVYYCTRWGLPPFAYWGQGTLVTVSA VL: DIVMTQSHKFMSTSVGDRVSITCKASQDVSTAVAWYQQKPGQSPKLLIYSASYRYTGVPDRFTGSGSGTDFTFTISSVQAEDLAVYYCHQHYSTPWTFGGGTKLEIK .
7.77
